Data provenance: patent US20220396626A1

Biological target: T1, human CLL1 on the surface of transfected cells (HEK293-CLL1; HEK-293T membrane proteome array) (human, UniProt Q5QGZ9 1-265)
T1 construct: whole, on cells; also called HEK293-CLL1 cells; CLL1 target antigen
T1 sequence (looked up): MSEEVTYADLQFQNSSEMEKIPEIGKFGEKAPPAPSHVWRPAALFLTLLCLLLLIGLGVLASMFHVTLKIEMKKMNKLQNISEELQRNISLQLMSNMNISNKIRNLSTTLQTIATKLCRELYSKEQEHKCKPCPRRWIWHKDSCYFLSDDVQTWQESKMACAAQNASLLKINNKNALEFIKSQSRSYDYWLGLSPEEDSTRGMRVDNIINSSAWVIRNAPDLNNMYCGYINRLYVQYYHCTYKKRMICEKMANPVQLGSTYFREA
Test: flow cytometry on HEK293 cells overexpressing CLL1, FITC goat anti-human IgG-Fc secondary; controls on the sheet: Cells + Secondary Antibody 1029.8, Blank 1041.3
# reported MFI at 1ug/ml; entries follow
measured_parameter: MFI at 1ug/ml

INSERT INTO measurements (binder, readout_value) VALUES
  ('chimeric antibody ch19C1 (antibody, V domains shown) VH: QVQLQQSGAELMKPGASVKISCKATGYTFSSYWIEWVKQRPGHGLEWIGEIFPGSGSIKYNEKFKGKATFTADTSSNTAYMQLSSLTSEDSAVHYCARGGTYNDYSLFDYWGQGTTLTVSS VL: QIVLTQSPAIMSASPGEKVTMTCSASSSVSYMYWYQQKPGSSPRLLIFDTSNLASGVPVRFSGSGSGTSYSLTISRMEAEDAATYYCQQWSSYPLTFGAGTKLELK', 163000),
  ('anti-human CLL-1 control antibody 1075.7 (antibody, it was captured by anti-human IgG sensors and detected with anti-human IgG-Fc, so a human Fc was present; also called ch1075.7) scFv: ENVLTQSPAIMSASPGEKVTMTCRASSNVISSYVHWYQQRSGASPKLWIYSTSNLASGVPARFSGSGSGTSYSLTISSVEAEDAATYYCQQYSGYPLTFGAGTKLELGGGGSGGGGSGGGGSDIQLQESGPGLVKPSQSLSLTCSVTGYSITSAYYWNWIRQFPGNKLEWMGYISYDGRNNYNPSLKNRISITRDTSKNQFFLKLNSVTTEDTATYYCAKEGDYDVGNYYAMDYWGQGTSVTVSS', 222000),
  ('chimeric antibody ch27H4 (antibody, V domains shown, also called parent antibody) VH: EVQLQQSGPELVKPGASVKISCKASGYSFTGYHMHWVKQSHVKSLEWIGRINPYNGAASHNQKFKDKATLTVDKSSSTAYMELHSLTSEDSAVYYCARGWDYDGGYYAMDYWGQGTSVTVSS VL: DIVMSQSPSSLAVSVGEKVTMSCKSSQSLLYSDNQKNYLAWYQQKPGQSPKLLIYWASTRESGVPDRFTGSGSGTDFTLTISSVKAEDLAVYYCQQYYTYPYTFGGGTKLEIK', 163000);
